Define the label as Satisfied when melting point is strictly less than 200 °C and as Not satisfied in all remaining cases.

Request: # check: melting point < 200 °C for N#Cc1cc(-c2ccc(C(F)(F)F)cc2)cn2c(C#Cc3cnc(N)nc3)cnc12
Response: Not satisfied

Request: # check: melting point < 200 °C for CC(C)(CO)NS(=O)(=O)c1ccc(C#Cc2cnn3c(C(F)F)cc(-c4cccc(C(F)(F)F)c4)nc23)s1
Response: Satisfied

Request: # check: melting point < 200 °C for Nc1ccc(C#Cc2cnn3c(C(F)F)cc(-c4cccc(C(F)(F)F)c4)nc23)cn1
Response: Satisfied

Request: # check: melting point < 200 °C for Cc1cc(-c2cc(C(F)F)n3ncc(C#Cc4ccc(S(N)(=O)=O)s4)c3n2)ccc1Cl
Response: Not satisfied

Request: # check: melting point < 200 °C for NC(=O)c1ccc(C#Cc2cnc3c(C(F)(F)F)cc(-c4ccc(C(F)(F)F)cc4)cn23)cc1
Response: Not satisfied

Request: # check: melting point < 200 °C for NS(=O)(=O)c1ccc(C#Cc2cnn3c(C(F)(F)F)cc(-c4cccc(C(F)(F)F)c4)nc23)s1
Response: Not satisfied

Request: # check: melting point < 200 °C for FC(F)(F)c1ccc(-c2cc(C(F)(F)F)n3ncc(C#Cc4cncnc4)c3n2)cc1
Response: Satisfied

Request: # check: melting point < 200 °C for Cc1cc(-c2cc(C(F)(F)F)n3ncc(C#Cc4ccc(S(=O)(=O)N5CCN(C)CC5)s4)c3n2)ccc1Cl
Response: Not satisfied

Request: # check: melting point < 200 °C for Cc1cc(-c2cc(C(F)F)n3ncc(C#Cc4cc(S(N)(=O)=O)c(F)cc4F)c3n2)ccc1Cl
Response: Not satisfied

Request: # check: melting point < 200 °C for FC(F)(F)c1cccc(-c2cc(C(F)(F)F)n3ncc(C#Cc4cccnc4)c3n2)c1
Response: Satisfied

Request: # check: melting point < 200 °C for O=S(=O)(c1ccc(C#Cc2cnn3c(C(F)(F)F)cc(-c4ccc(C(F)(F)F)cc4)nc23)s1)N(CCO)CCO
Response: Satisfied

Request: # check: melting point < 200 °C for O=S(=O)(c1ccc(C#Cc2cnn3c(C(F)F)cc(-c4ccc(C(F)(F)F)cc4)nc23)s1)N(CCO)CCO
Response: Satisfied

Request: # check: melting point < 200 °C for Cc1cc(-c2cc(C(F)(F)F)n3ncc(C#Cc4ccc(S(N)(=O)=O)cc4)c3n2)ccc1Cl
Response: Not satisfied

Request: # check: melting point < 200 °C for O=S(=O)(Nc1cccnc1)c1ccc(C#Cc2cnn3c(C(F)(F)F)cc(-c4ccc(C(F)(F)F)cc4)nc23)s1
Response: Not satisfied

Request: # check: melting point < 200 °C for Cc1cc(-c2cc(C(F)(F)F)n3ncc(C#Cc4ccc(S(=O)(=O)NC(C)(C)C)s4)c3n2)ccc1Cl
Response: Not satisfied

###

Exercise: for every item that follows, state its recorded melting point.
Express your answer in °C, writing the number without its unit.

Per the records, this compound ( NS(=O)(=O)c1cc(C#Cc2ncn3c(C(F)F)cc(-c4ccc(C(F)(F)F)cc4)nc23)c(F)cc1F [Example 274] ) has melting point equal to 149

Per the records, this compound ( Nc1ncc(C#Cc2cnc3c(F)cc(-c4ccc(C(F)(F)F)cc4)cn23)cn1 [Example 240] ) has melting point equal to 286

Per the records, this compound ( Cc1cc(-c2ccc(C(F)(F)F)cc2)cn2c(C#Cc3cncc(S(N)(=O)=O)c3)cnc12 [Example 229] ) has melting point equal to 294

Per the records, this compound ( Cc1cc(-c2cc(C(F)(F)F)n3ncc(C#Cc4cc(S(N)(=O)=O)c(F)cc4F)c3n2)ccc1Cl [Example 111] ) has melting point equal to 294

Per the records, this compound ( CN1CCN(S(=O)(=O)c2ccc(C#Cc3cnn4c(C(F)(F)F)cc(-c5cccc(C(F)(F)F)c5)nc34)s2)CC1 [Example 249] ) has melting point equal to 191

###

measure.name: melting point (°C)
Express your answer in °C, writing the number without its unit.

Per the records, this compound ( NS(=O)(=O)c1ccc(C#Cc2cnc3c(C4CC4)cc(-c4ccc(C(F)(F)F)cc4)cn23)s1 ) has melting point equal to 261

Per the records, this compound ( NS(=O)(=O)c1cnc(C#Cc2cnn3c(C(F)(F)F)cc(-c4ccc(C(F)(F)F)cc4)nc23)s1 ) has melting point equal to 235

Per the records, this compound ( Cc1cc(-c2cc(C(F)(F)F)n3ncc(C#Cc4cnc(N)nc4)c3n2)ccc1C(F)(F)F ) has melting point equal to 240

Per the records, this compound ( Cc1ncccc1C#Cc1cnn2c(C(F)(F)F)cc(-c3ccc(C(F)(F)F)cc3)nc12 ) has melting point equal to 198

###

Exercise: for every item that follows, state its recorded melting point.

Per the records, this compound ( CN(C)S(=O)(=O)c1ccc(C#Cc2cnn3c(C(F)F)cc(-c4ccc(C(F)(F)F)cc4)nc23)cc1 [Example 136] ) has melting point equal to 211 to 212 °C

Per the records, this compound ( O=S(=O)(NCc1ccncc1)c1ccc(C#Cc2cnn3c(C(F)F)cc(-c4ccc(C(F)(F)F)cc4)nc23)s1 [Example 277] ) has melting point equal to 141 °C

Per the records, this compound ( Cc1ccc(C#Cc2cnn3c(C(F)(F)F)cc(-c4ccc(C(F)(F)F)cc4)nc23)cc1S(N)(=O)=O [Example 35] ) has melting point equal to 255 to 267 °C

Per the records, this compound ( Nc1ncc(C#Cc2cnn3c(C(F)(F)F)cc(-c4ccc(C(F)(F)F)cc4)nc23)cc1C(F)(F)F [Example 222] ) has melting point equal to 230 °C

###

Exercise: for every item that follows, state its recorded melting point.
Express your answer in °C, writing the number without its unit.

Per the records, this compound ( O=S(=O)(c1ccc(C#Cc2cnn3c(C(F)F)cc(-c4cccc(C(F)(F)F)c4)nc23)s1)N(CCO)CCO ) has melting point equal to 174

Per the records, this compound ( CC(C)(C)NS(=O)(=O)c1ccc(C#Cc2cnn3c(C(F)(F)F)cc(-c4cccc(C(F)(F)F)c4)nc23)s1 ) has melting point equal to 168

Per the records, this compound ( CC(C)(C)NS(=O)(=O)c1cncc(C#Cc2cnn3c(C(F)(F)F)cc(-c4ccc(C(F)(F)F)cc4)nc23)c1 ) has melting point equal to 224

Per the records, this compound ( Nc1ccc(C#Cc2cnn3c(C(F)(F)F)cc(-c4cccc(C(F)(F)F)c4)nc23)cn1 ) has melting point equal to 177

Per the records, this compound ( O=S(=O)(NC(CO)CO)c1ccc(C#Cc2cnn3c(C(F)(F)F)cc(-c4ccc(C(F)(F)F)cc4)nc23)s1 ) has melting point equal to 247

Per the records, this compound ( NS(=O)(=O)c1ccc(C#Cc2ncn3c(C(F)F)cc(-c4ccc(C(F)(F)F)cc4)nc23)cc1 ) has melting point equal to 282

###

Exercise: for every item that follows, state its recorded melting point.
Express your answer in °C, writing the number without its unit.

Per the records, this compound ( NS(=O)(=O)c1cccc(C#Cc2cnn3c(C(F)F)cc(-c4cccc(C(F)(F)F)c4)nc23)c1 [Example 167] ) has melting point equal to 199

Per the records, this compound ( CN1CCN(S(=O)(=O)c2ccc(C#Cc3cnn4c(C(F)(F)F)cc(-c5ccc(C(F)(F)F)cc5)nc34)s2)CC1 [Example 157] ) has melting point equal to 250

###

measure.name: melting point

Per the records, this molecule ( CCOc1cc(-c2cc(C(F)(F)F)n3ncc(C#Cc4ncc(S(=O)(=O)NC(C)(C)CO)s4)c3n2)ccc1C(F)(F)F [Example 51] ) has melting point equal to 209 to 211 °C

Per the records, this molecule ( CC(C)(C)OC(=O)NCCNS(=O)(=O)c1cc(C#Cc2cnn3c(C(F)F)cc(-c4ccc(C(F)(F)F)cc4)nc23)c(F)cc1F [Example 185] ) has melting point equal to 203 to 204 °C (dec.)

Per the records, this molecule ( CC(C)(C)NS(=O)(=O)c1ccc(C#Cc2cnn3c(C(F)(F)F)cc(-c4ccc(C(F)(F)F)cc4)nc23)s1 [Example 109] ) has melting point equal to 226 °C

Per the records, this molecule ( FC(F)(F)c1ccc(-c2cc(C(F)(F)F)n3ncc(C#Cc4ccc(C5CC5)nc4)c3n2)cc1 [Example 10] ) has melting point equal to 138 to 140 °C

Per the records, this molecule ( NC(=O)c1cncc(C#Cc2cnn3c(C(F)(F)F)cc(-c4ccc(C(F)(F)F)cc4)nc23)c1 [Example 15] ) has melting point equal to 285 to 287 °C

Per the records, this molecule ( CC(=O)Nc1ccc(C#Cc2cnn3c(C(F)(F)F)cc(-c4ccc(C(F)(F)F)cc4)nc23)cn1 [Example 225] ) has melting point equal to 266 °C

Per the records, this molecule ( CC(C)(CO)NS(=O)(=O)c1cnc(C#Cc2cnn3c(C(F)(F)F)cc(-c4ccc(Cl)c(Cl)c4)nc23)s1 [Example 90] ) has melting point equal to 220 to 223 °C
